Listing of recorded IC50 by entry.
- target system: UniProt P36897
- Sequence (P36897 162-503): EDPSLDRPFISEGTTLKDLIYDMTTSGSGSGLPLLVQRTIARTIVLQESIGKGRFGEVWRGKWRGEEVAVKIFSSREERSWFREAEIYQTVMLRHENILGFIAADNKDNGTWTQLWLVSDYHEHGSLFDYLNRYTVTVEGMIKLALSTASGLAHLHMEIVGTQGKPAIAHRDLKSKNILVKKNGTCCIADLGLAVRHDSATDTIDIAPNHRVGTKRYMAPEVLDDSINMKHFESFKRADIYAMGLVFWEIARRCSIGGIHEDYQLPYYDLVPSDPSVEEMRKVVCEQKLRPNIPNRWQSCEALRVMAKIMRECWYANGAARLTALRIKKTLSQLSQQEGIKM
- protocol: ALK5 Enzyme Assay 2 (fluorescence polarisation probe displacement)
- Assay type: binding
- Set-up: 6His tagged human ALK5 (residues162-503) was grown and purified from insect cells; 6His; made in house; host or cells: insect cells
- measurement conditions: read-out: EAA2: activity (μM) using Enzyme Assay 2
Please state the figure in µM; there is no need to write the unit.

CCn1nccc1Nc1cc(Oc2ccc(C)nc2C)ccn1 [Example 88] | 0.205
COc1cc(Nc2cc(Oc3ccc(C)nc3-c3cccc(F)c3)ccn2)cc(OC)c1OC [Example 56] | 0.0795
Cc1ccc(Oc2ccnc(Nc3cccc(CN4CCN(C(=O)C5CC5)CC4)c3)c2)c(C)n1 [Example 183] | 0.0127

Query compound follows.
Let me check: Cc1cc(Oc2ccnc(Nc3cc(NS(C)(=O)=O)cc(C(N)=O)c3)c2)c(-c2ccccn2)nc1C [Example 84] , system UniProt P36897, measured IC50 is 0.016

* * *

Listing of recorded IC50 by entry.
- target system: human ALK5 (Homo sapiens, UniProt P36897)
- protocol: ALK5 Enzyme Assay 2 (fluorescence polarisation probe displacement)
- Format: binding
- Design: 6His tagged human ALK5 (residues162-503) was grown and purified from insect cells; 6His; made in house; host or cells: insect cells
- measurement conditions: read-out: EAA2: activity (μM) using Enzyme Assay 2
Please state the figure in µM; there is no need to write the unit.

Let me check: Cc1ccc(Oc2ccnc(Nc3ccc(C(=O)NCCN4CCCC4=O)cc3)c2)c(C)n1 , system human ALK5 (Homo sapiens, UniProt P36897), measured IC50 is 0.0693

Let me check: CNS(=O)(=O)c1ccc(Nc2cc(Oc3ccc(C)nc3C)ccn2)cc1 , system human ALK5 (Homo sapiens, UniProt P36897), measured IC50 is 0.171

Let me check: Cc1ccc(Oc2ccnc(Nc3cccc(CN4CCNCC4)c3)c2)c(C)n1 , system human ALK5 (Homo sapiens, UniProt P36897), measured IC50 is 0.00829

Let me check: Cc1ccc(Oc2ccnc(Nc3ccc(S(C)(=O)=O)cc3)c2)c(C)n1 , system human ALK5 (Homo sapiens, UniProt P36897), measured IC50 is 0.077

Let me check: Cc1ccc(Oc2ccnc(Nc3ccc(CO)cc3)c2)c(C)n1 , system human ALK5 (Homo sapiens, UniProt P36897), measured IC50 is 0.0197

Let me check: Cc1ccc(Oc2ccnc(Nc3cccc(CO)c3)c2)c(C)n1 , system human ALK5 (Homo sapiens, UniProt P36897), measured IC50 is 0.0113

Let me check: COc1cc(Nc2cc(Oc3cccnc3-c3ccccc3C(N)=O)ccn2)cc(OC)c1OC , system human ALK5 (Homo sapiens, UniProt P36897), measured IC50 is 3.02

Let me check: Cc1ccc(Oc2ccnc(Nc3ccc(S(N)(=O)=O)cc3)c2)c(-c2ccco2)n1 , system human ALK5 (Homo sapiens, UniProt P36897), measured IC50 is 0.0128

Let me check: Cc1ccc(Oc2ccnc(Nc3ccc(S(=O)(=O)NCCn4cccn4)cc3)c2)c(C)n1 , system human ALK5 (Homo sapiens, UniProt P36897), measured IC50 is 0.101

Let me check: Cc1ccc(Oc2ccnc(Nc3ccc(C(=O)NCCN4CCOCC4)cc3)c2)c(C)n1 , system human ALK5 (Homo sapiens, UniProt P36897), measured IC50 is 0.0675

Let me check: COc1cc(Nc2cc(Oc3cccnc3-c3ccccc3)ccn2)cc(OC)c1OC , system human ALK5 (Homo sapiens, UniProt P36897), measured IC50 is 0.00804

Let me check: Cc1cc(Oc2ccnc(Nc3ccc(F)cc3F)c2)c(-c2ccccn2)nc1C , system human ALK5 (Homo sapiens, UniProt P36897), measured IC50 is 0.0216

Let me check: COc1cc(Nc2cc(Oc3ccc(C)nc3)ccn2)cc(OC)c1OC , system human ALK5 (Homo sapiens, UniProt P36897), measured IC50 is 0.294

* * *

Listing of recorded IC50 by entry.
- target system: human ALK5 (Homo sapiens, UniProt P36897)
- Sequence (P36897 162-503): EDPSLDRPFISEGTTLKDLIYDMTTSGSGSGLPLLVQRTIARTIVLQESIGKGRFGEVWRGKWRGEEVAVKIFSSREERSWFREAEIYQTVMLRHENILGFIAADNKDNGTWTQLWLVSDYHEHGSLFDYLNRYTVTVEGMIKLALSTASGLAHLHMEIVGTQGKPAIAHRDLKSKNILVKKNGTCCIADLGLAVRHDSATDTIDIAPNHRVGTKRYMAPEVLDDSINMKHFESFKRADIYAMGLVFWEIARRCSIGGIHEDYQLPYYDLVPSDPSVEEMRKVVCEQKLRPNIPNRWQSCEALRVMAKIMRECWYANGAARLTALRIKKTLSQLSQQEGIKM
- protocol: ALK5 Enzyme Assay 1
- Assay type: biochemical
- Parameters: 6His tagged ALK5 protein (amino acids 162-503) expressed in insect cells; 6His; made in house; host or cells: insect cells
- measurement conditions: read-out: EAA: activity (μM) using Enzyme Assay 1
Please state the figure in µM; there is no need to write the unit.

COc1cc(Nc2cc(Oc3ccc(C)nc3-c3ccccc3)ccn2)cc(OC)c1OC [Example 45] | 0.00537
COc1cc(Nc2cc(Oc3cccnc3-c3ccccc3C#N)ccn2)cc(OC)c1OC [Example 50] | 0.126
COc1cc(Nc2cc(Oc3ccc(C)nc3-c3ccccn3)ccn2)cc(OC)c1OC [Example 47] | 0.0248

The value of IC50 measured for the compound Cc1ccc(Oc2ccnc(Nc3ccc(C(=O)O)cc3)c2)c(C)n1 [Example 205] turned out to be 0.15

The value of IC50 measured for the compound COc1cc(Nc2cc(Oc3ccc(C)nc3-c3cnccn3)ccn2)cc(OC)c1OC [Example 48] turned out to be 0.0751

The value of IC50 measured for the compound COc1cc(Nc2cc(Oc3cccnc3Cl)ccn2)cc(OC)c1OC [Example 53] turned out to be 0.481

* * *

- target system: human ALK5 (Homo sapiens, UniProt P36897)
- protocol: ALK5 Enzyme Assay 2 (fluorescence polarisation probe displacement)
- Format: binding
- Parameters: 6His tagged human ALK5 (residues162-503) was grown and purified from insect cells; 6His; made in house; host or cells: insect cells
- measurement conditions: read-out: EAA2: activity (μM) using Enzyme Assay 2
Listing of recorded log10 of IC50 by entry.
For clarity, the numbers are log10 values of IC50 expressed in µM.

Examples with answers:
Cc1ccc(Oc2ccnc(Nc3ccc(S(=O)(=O)NCCN4CCS(=O)(=O)CC4)cc3)c2)c(C)n1 | -0.85
Cc1ccc(Oc2ccnc(Nc3cccc(CN4CCN(C(=O)OC(C)(C)C)CC4)c3)c2)c(C)n1 | -1.42
COc1cc(Nc2cc(Oc3ccc(C)nc3-c3ccco3)ccn2)cc(OC)c1OC | -1.90
Cc1ccc(Oc2ccnc(Nc3ccccn3)c2)c(-c2ccccn2)n1 | -2.08
COc1cc(Nc2cc(Oc3cccnc3)ccn2)cc(OC)c1OC | 0.29
Cc1ccc(Oc2ccnc(Nc3cccc(C(=O)NC4CC4)c3)c2)c(C)n1 [Example 194A] | -1.34
Cc1ccc(Oc2ccnc(Nc3ccc(C(=O)NCCN4CCC(F)(F)CC4)cc3)c2)c(C)n1 | -0.97
Cc1cc(Oc2ccnc(Nc3ccc(F)cc3)c2)c(-c2ccccn2)nc1C | -1.05

The value of log10 of IC50 measured for the compound Cc1ccc(Oc2ccnc(Nc3ccccn3)c2)c(-c2ccco2)n1 turned out to be -2.07

The value of log10 of IC50 measured for the compound COc1cc(Nc2cc(Oc3cccnc3C)ccn2)cc(OC)c1OC turned out to be -0.73

The value of log10 of IC50 measured for the compound COc1ccc(Nc2cc(Oc3ccc(C)nc3C)ccn2)cc1 turned out to be -0.87

The value of log10 of IC50 measured for the compound Cc1cc(Oc2ccnc(Nc3ccc(CC#N)cc3)c2)c(-c2ccccn2)nc1C turned out to be -2.31
